Source: PubChem BioAssay (NCATS)

# System: MKL-2
# assayComment: qHTS assay to identify novel small-molecules to repurpose for Merkel cell carcinoma treatment (AID 1296009); note: nearly all actives have a fitted effect of over 60% in size
# details: MCC and control cell lines, CellTiter-Glo viability, 72 h; series mostly up to 46 µM
Results filed as inconclusive are left out. Activity calls are given as the source filed them. Calls come from the whole dose curve; as a rule, active = well fitted inhibition curve with a large enough effect; inconclusive = small, poorly fitted or top-dose-only effect; inactive = flat fitted curve, though single readings scatter.
Labels: true (1) = active, false (0) = inactive

molecule=CC(C)n1c(C=C[C@H](O)C[C@H](O)CC(=O)O)c(-c2ccc(F)cc2)c2ccccc21 systemundertest=MKL-2 category="true (1)"
molecule=Cc1ccc2c(c1)c1c(n2CCc2ccc(C)nc2)CCN(C)C1 systemundertest=MKL-2 category="false (0)"
molecule=Cc1c(C(=O)Nc2ccc(N3C[C@@H](C)O[C@@H](C)C3)nc2)cccc1-c1ccc(OC(F)(F)F)cc1 systemundertest=MKL-2 category="false (0)"
molecule=CN(C)S(=O)(=O)c1ccc2c(c1)C(=Cc1cc3c([nH]1)CCCC3)C(=O)N2 systemundertest=MKL-2 category="false (0)"
molecule=CC(C)c1c(C(=O)Nc2ccccc2)c(-c2ccccc2)c(-c2ccc(F)cc2)n1CC[C@H](O)C[C@@H](O)CC(=O)O systemundertest=MKL-2 category="true (1)"
molecule=COc1ccc(-c2cc(=O)c3c(O)cc(O[C@@H]4O[C@H](CO[C@@H]5O[C@@H](C)[C@H](O)[C@@H](O)[C@@H]5O)[C@@H](O)[C@H](O)[C@@H]4O)cc3o2)cc1O systemundertest=MKL-2 category="false (0)"
molecule=CCC=CC[C@H]1C(=O)CC[C@@H]1CC(=O)OC systemundertest=MKL-2 category="false (0)"
molecule=CN(C)CCOc1ccc(C(=C(CCCl)c2ccccc2)c2ccccc2)cc1 systemundertest=MKL-2 category="false (0)"
molecule=O=C1NC(=O)C(c2cnc3ccccn23)=C1c1cn2c3c(cccc13)CN(C(=O)N1CCOCC1)CC2 systemundertest=MKL-2 category="false (0)"
molecule=COc1ccc2ccc(=O)oc2c1CC=C(C)C systemundertest=MKL-2 category="true (1)"
molecule=C[C@@]1(c2cc(-c3cncnc3)c(F)cc2F)CCSC(N)=N1 systemundertest=MKL-2 category="false (0)"
molecule=O=C(CO)N1CCC(c2[nH]nc(-c3ccc(Cl)cc3)c2-c2ccncn2)CC1 systemundertest=MKL-2 category="false (0)"
molecule=CC(C)C[C@H](NC(=O)c1cc2ccccc2s1)C(=O)N1CCN(C(=O)[C@H](CO)NS(=O)(=O)c2ccc(Cl)cc2Cl)CC1 systemundertest=MKL-2 category="false (0)"
molecule=CCCCOCCOc1nc(-c2ccc(C(=O)O)c(F)c2)sc1C systemundertest=MKL-2 category="false (0)"
molecule=O=C1CN2Cc3c(ccc(Cl)c3Cl)N=C2N1 systemundertest=MKL-2 category="false (0)"
molecule=CC1CCN(c2cc(N3CCN(C)CC3)ccc2NC(=O)c2cc(C#N)c[nH]2)CC1 systemundertest=MKL-2 category="false (0)"
molecule=COC(=O)[C@H](c1ccccc1Cl)N1CCc2sccc2C1 systemundertest=MKL-2 category="false (0)"
molecule=Cc1ccc(C(=O)N(CCCN)[C@@H](c2oc3cc(Cl)ccc3c(=O)c2Cc2ccccc2)C(C)C)cc1 systemundertest=MKL-2 category="true (1)"
molecule="Clc1ccc(COC(Cn2ccnc2)c2ccc(Cl)cc2Cl)c(Cl)c1 (stereo not given)" systemundertest=MKL-2 category="false (0)"
molecule="COc1nccc(-c2c(-c3ccc(F)cc3)ncn2C2CCC(O)CC2)n1 (stereo not given)" systemundertest=MKL-2 category="false (0)"
molecule=CC(C)CN(C[C@H](O)[C@H](Cc1ccccc1)NC(=O)O[C@H]1CCOC1)S(=O)(=O)c1ccc(N)cc1 systemundertest=MKL-2 category="false (0)"
molecule=CN(C)CCN(Cc1ccc(Cl)cc1)c1ccccn1 systemundertest=MKL-2 category="false (0)"
molecule=CCOC(=O)N1CCN([N+]([O-])=NOc2cc(ON=[N+]([O-])N3CCN(C(=O)OCC)CC3)c([N+](=O)[O-])cc2[N+](=O)[O-])CC1 systemundertest=MKL-2 category="true (1)"
molecule=CC1(COc2ccc3c(c2)ncn3-c2ccc3cccc(N4CCC(N)CC4)c3n2)COC1 systemundertest=MKL-2 category="true (1)"
molecule=O=c1cc(-c2ccc(O)c(O)c2)oc2cc(O)cc(O)c12 systemundertest=MKL-2 category="false (0)"

====

# assayComment: qHTS of pediatric cancer cell lines to identify multiple opportunities for drug repurposing: Primary screen for NB1643 cells (AID 1347099); note: nearly all actives have a fitted effect of over 50% in size
# details: NB1643 neuroblastoma viability, CellTiter-Glo luminescence, 48 h; series mostly up to 46 µM
Results filed as inconclusive are left out. Calls of active or inactive are those of the source. The call rests on the fitted dose curve; in most records, active means well fitted cell-killing curve with a large enough effect; inconclusive means small, poorly fitted or top-dose-only effect; inactive means no such curve, though single readings can be large or run the other way.
Possible outcomes: active, inactive

smilesinput=OC[C@H]1O[C@@H](Oc2ccc(O)cc2)[C@H](O)[C@@H](O)[C@H]1O category=inactive
smilesinput=O=C(NCCCCN1CCOCC1)c1cc2ccccc2o1 category=inactive
smilesinput=O=C(O)CCC=CCC[C@@H]1[C@H](N2CCCCC2)[C@@H](O)C[C@@H]1OCc1ccc(-c2ccccc2)cc1 category=active
smilesinput=C[C@@H]1CC=CC=CC=CC=C[C@@H](O[C@@H]2O[C@H](C)[C@@H](O)[C@H](N)[C@H]2O)C[C@@H]2O[C@](O)(C[C@@H](O)C[C@@H]3O[C@@H]3C=CC(=O)O1)C[C@H](O)[C@@H]2C(=O)O category=inactive
smilesinput=CCN1CCC(n2cc(CNc3cc(Cl)c4ncc(C#N)c(Nc5ccc(F)c(Cl)c5)c4c3)nn2)CC1 category=active
smilesinput=Nc1ccc(-c2ccc3ncc4ccc(=O)n(-c5cccc(C(F)(F)F)c5)c4c3c2)cn1 category=active
smilesinput=COc1cc2c(cc1Cc1cccc(Cl)c1F)c(=O)c(C(=O)O)cn2[C@H](CO)C(C)C category=active
smilesinput=CCOc1ccccc1N=Nc1c(C)[nH]n(-c2nc(-c3ccccc3)cs2)c1=O category=active
smilesinput=Cc1[nH]c(C=C2C(=O)Nc3ccc(S(=O)(=O)N(C)c4cccc(Cl)c4)cc32)c(C)c1C(=O)N1CCN(C)CC1 category=active
smilesinput=C[C@H](CCC(=O)O)[C@H]1CC[C@H]2[C@H]3[C@@H](CC[C@]12C)[C@@]1(C)CC[C@@H](O)C[C@H]1C[C@@H]3O category=inactive
smilesinput=CC[C@H](C=C[C@@H](C)[C@H]1CC[C@H]2[C@@H]3CC=C4C[C@@H](O)CC[C@]4(C)[C@@H]3CC[C@]12C)C(C)C category=inactive

====

# assayComment: qHTS of pediatric cancer cell lines to identify multiple opportunities for drug repurposing: Primary screen for NB-EBc1 cells (AID 1347095)
# details: NB-EBc1 neuroblastoma viability, CellTiter-Glo luminescence, 48 h; series mostly up to 46 µM
Records with an inconclusive call do not appear. Active and inactive are the calls of the source. Calls come from the whole dose curve; as a rule, active = well fitted cell-killing curve with a large enough effect; inconclusive = small, poorly fitted or top-dose-only effect; inactive = no such curve, though single readings can be large or run the other way.
Classes used: yes (1) (active), no (0) (inactive)

compound=O=C(Nc1cccc(C(F)(F)F)c1)Nc1cc(S(=O)(=O)NC2CC2)ccc1-c1ccsc1 category="yes (1)"
compound="CC1C(=O)OC2C(O)C34C5CC(C(C)(C)C)C36C(OC(=O)C6O)OC4(C(=O)O5)C12O (stereo unspecified)" category="yes (1)"
compound="CC1(C)CC(=O)c2c(C(F)(F)F)nn(-c3ccc(C(N)=O)c(NC4CCC(O)CC4)c3)c2C1 (stereo unspecified)" category="yes (1)"
compound=O=C1NC(=O)C(c2cnc3ccccn23)=C1c1cn2c3c(cccc13)CN(C(=O)N1CCOCC1)CC2 category="yes (1)"
compound=CCCCC[C@H](O)C=C[C@H]1[C@H](O)CC(=O)[C@H]1CC=CCCCC(=O)O category="no (0)"
compound=CCOC(=O)N1CCN([N+]([O-])=NOc2cc(ON=[N+]([O-])N3CCN(C(=O)OCC)CC3)c([N+](=O)[O-])cc2[N+](=O)[O-])CC1 category="yes (1)"

====

Quick list: growth, % of control per entry.
# assayComment: qHTS profiling of the MIPE4 collection as inhibitors of Plasmodium falciparum (HB3) proliferation (AID 743347);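 note: plate controls were DMSO vehicle wells for no effect and artemisinin wells for full effect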
# details: P. falciparum HB3 in erythrocytes, SYBR Green DNA, 72 h; at 28.5 µM (top of the series) unless noted
quantity: growth, % of control (%)

molecule=NC(=O)c1noc([C@H](CCCC2CCCCC2)CC(=O)NO)n1 recordedmeasurement=48.3
molecule=C=CC[N+]1([C@H]2C[C@H]3[C@@H]4CC[C@H]5C[C@H](O)[C@@H](N6CCOCC6)C[C@]5(C)[C@@H]4CC[C@]3(C)[C@H]2OC(C)=O)CCCC1 recordedmeasurement=40.8
molecule=N#CC(=C1Nc2ccccc2S1)c1ccnc(OCc2ccc(CN3CCOCC3)cc2)n1 recordedmeasurement=10.8
molecule=O=c1[nH]nc(OCCCc2ccc(Cl)cc2)c(NCc2cccnc2)c1Br recordedmeasurement=10.3
molecule=C[C@H]1COC2=C1C(=O)C(=O)c1c2ccc2c1CCCC2(C)C recordedmeasurement=9.95
molecule=O=C(NCCCCN1CCOCC1)c1cc2ccccc2o1 recordedmeasurement=87.4
molecule=Cc1ccc(C(=O)N(CCCN)[C@@H](c2oc3cc(Cl)ccc3c(=O)c2Cc2ccccc2)C(C)C)cc1 recordedmeasurement=5.08
molecule="Cc1cc(C(C)Nc2ccccc2)c2nc(N3CCOCC3)cc(=O)n2c1 (centres undefined)" recordedmeasurement=15.4
molecule=CCCCCCCCCCCCCC(=O)N[C@H](CO)[C@H](O)c1ccc([N+](=O)[O-])cc1 recordedmeasurement=24.3
molecule="CC1=C(C(=O)Nc2cc3cn[nH]c3cc2F)C(c2ccc(C(F)(F)F)cc2)CC(=O)N1 (centres undefined)" recordedmeasurement=5.72
molecule=Cc1cnc(-c2cc(N3CCN(C(=O)CCS(C)(=O)=O)CC3)ncc2Cl)c(C)c1 recordedmeasurement=76.4
molecule=O=C1Nc2ccc(I)cc2C1=Cc1cc(Br)c(O)c(Br)c1 recordedmeasurement=17.7
molecule=Nc1ccc(-c2ccc3ncc4ccc(=O)n(-c5cccc(C(F)(F)F)c5)c4c3c2)cn1 recordedmeasurement=2.97
molecule=O=C(O)c1ccc(O)c2ncc(N3CCOCC3)cc12 recordedmeasurement=11
